Item-by-item account of MIC
# System: Mycobacterium smegmatis ATCC 114
# protocol text: In vitro antibacterial activity, agar dilution MIC
# Assay type: cell-based
# measurement parameters: Mycobacterium smegmatis ATCC 114 (organism code UU); BHI agar, 35-37 °C, 20 to 24 hours; unit assumed
measure name: MIC

molecule: CC[C@H]1OC(=O)[C@H](C)C(=O)[C@H](C)[C@@H](O[C@@H]2O[C@H](C)C[C@H](N(C)Cc3ccccc3)[C@H]2O)[C@](C)(OCC=Cc2cnc3ccccc3c2)C[C@@H](C)C(=O)[C@H](C)[C@H]2NC(=O)O[C@@]21C [Example 8]
measure name: MIC
result: 0.39 µg/mL

molecule: CC[C@H]1OC(=O)[C@H](C)C(=O)[C@H](C)[C@@H](O[C@@H]2O[C@H](C)C[C@H](NC)[C@H]2O)[C@](C)(OCC=Cc2cnc3ccccc3c2)C[C@@H](C)C(=O)[C@H](C)[C@H]2NC(=O)O[C@@]21C [Example 3]
measure name: MIC
result: 12.5 µg/mL

molecule: CC[C@H]1OC(=O)[C@H](C)C(=O)[C@H](C)[C@@H](O[C@@H]2O[C@H](C)C[C@H](N(C)CCF)[C@H]2O)[C@](C)(OCC=Cc2cnc3ccccc3c2)C[C@@H](C)C(=O)[C@H](C)[C@H]2NC(=O)O[C@@]21C [Example 7]
measure name: MIC
result: 1.56 µg/mL

molecule: CC[C@H]1OC(=O)[C@H](C)C(=O)[C@H](C)[C@@H](O[C@@H]2O[C@H](C)C[C@H](N(C)CC=Cc3ccccc3)[C@H]2O)[C@](C)(OCC=Cc2cnc3ccccc3c2)C[C@@H](C)C(=O)[C@H](C)[C@H]2NC(=O)O[C@@]21C [Example 17]
measure name: MIC
result: 0.39 µg/mL

molecule: C#CCN(C)[C@H]1C[C@@H](C)O[C@@H](O[C@@H]2[C@@H](C)C(=O)[C@@H](C)C(=O)O[C@H](CC)[C@@]3(C)OC(=O)N[C@@H]3[C@@H](C)C(=O)[C@H](C)C[C@@]2(C)OCC=Cc2cnc3ccccc3c2)[C@@H]1O [Example 10]
measure name: MIC
result: 1.56 µg/mL

molecule: CC[C@H]1OC(=O)[C@H](C)C(=O)[C@H](C)[C@@H](O[C@@H]2O[C@H](C)C[C@H](N(C)Cc3cccnc3)[C@H]2O)[C@](C)(OCC=Cc2cnc3ccccc3c2)C[C@@H](C)C(=O)[C@H](C)[C@H]2NC(=O)O[C@@]21C [Example 14]
measure name: MIC
result: 0.39 µg/mL

molecule: C=C(CN(C)[C@H]1C[C@@H](C)O[C@@H](O[C@@H]2[C@@H](C)C(=O)[C@@H](C)C(=O)O[C@H](CC)[C@@]3(C)OC(=O)N[C@@H]3[C@@H](C)C(=O)[C@H](C)C[C@@]2(C)OCC=Cc2cnc3ccccc3c2)[C@@H]1O)C(=O)OC [Example 18]
measure name: MIC
result: 6.2 µg/mL

molecule: CCCN(C)[C@H]1C[C@@H](C)O[C@@H](O[C@@H]2[C@@H](C)C(=O)[C@@H](C)C(=O)O[C@H](CC)[C@@]3(C)OC(=O)N[C@@H]3[C@@H](C)C(=O)[C@H](C)C[C@@]2(C)OCC=Cc2cnc3ccccc3c2)[C@@H]1O [Example 16]
measure name: MIC
result: 1.56 µg/mL

====

Item-by-item account of log10 of MIC
# Test system: Nocardia Asteroides ATCC9970
# protocol text: In vitro antibacterial activity, agar dilution MIC
# Assay type: cell-based
# measurement parameters: Nocardia Asteroides ATCC9970 (organism code VV); BHI agar, 35-37 °C, 20 to 24 hours; unit assumed
measure name: log10 of MIC (log10 of the value in µg/mL)

compound: C=C(C)CN(C)[C@H]1C[C@@H](C)O[C@@H](O[C@@H]2[C@@H](C)C(=O)[C@@H](C)C(=O)O[C@H](CC)[C@@]3(C)OC(=O)N[C@@H]3[C@@H](C)C(=O)[C@H](C)C[C@@]2(C)OCC=Cc2cnc3ccccc3c2)[C@@H]1O
log10 of MIC: -1.00

compound: CC[C@H]1OC(=O)[C@H](C)C(=O)[C@H](C)[C@@H](O[C@@H]2O[C@H](C)C[C@H](N(C)Cc3cccnc3)[C@H]2O)[C@](C)(OCC=Cc2cnc3ccccc3c2)C[C@@H](C)C(=O)[C@H](C)[C@H]2NC(=O)O[C@@]21C
log10 of MIC: -0.70

compound: C#CCN(C)[C@H]1C[C@@H](C)O[C@@H](O[C@@H]2[C@@H](C)C(=O)[C@@H](C)C(=O)O[C@H](CC)[C@@]3(C)OC(=O)N[C@@H]3[C@@H](C)C(=O)[C@H](C)C[C@@]2(C)OCC=Cc2cnc3ccccc3c2)[C@@H]1O
log10 of MIC: -0.70

compound: C=C(CN(C)[C@H]1C[C@@H](C)O[C@@H](O[C@@H]2[C@@H](C)C(=O)[C@@H](C)C(=O)O[C@H](CC)[C@@]3(C)OC(=O)N[C@@H]3[C@@H](C)C(=O)[C@H](C)C[C@@]2(C)OCC=Cc2cnc3ccccc3c2)[C@@H]1O)C(=O)OC
log10 of MIC: -0.70

compound: CC[C@H]1OC(=O)[C@H](C)[C@@H](O[C@H]2C[C@@](C)(OC)[C@@H](O)[C@H](C)O2)[C@H](C)[C@@H](O[C@@H]2O[C@H](C)C[C@H](N(C)C)[C@H]2O)[C@](C)(O)C[C@@H](C)C(=O)[C@H](C)[C@@H](O)[C@]1(C)O [Ery. A, Erythromycin A, reference compound]
log10 of MIC: -1.00

compound: CC[C@H]1OC(=O)[C@H](C)C(=O)[C@H](C)[C@@H](O[C@@H]2O[C@H](C)C[C@H](N(C)CC#N)[C@H]2O)[C@](C)(OCC=Cc2cnc3ccccc3c2)C[C@@H](C)C(=O)[C@H](C)[C@H]2NC(=O)O[C@@]21C
log10 of MIC: -0.11

compound: CC[C@H]1OC(=O)[C@H](C)C(=O)[C@H](C)[C@@H](O[C@@H]2O[C@H](C)C[C@H](N(C)C(C)=O)[C@H]2O)[C@](C)(OCC=Cc2cnc3ccccc3c2)C[C@@H](C)C(=O)[C@H](C)[C@H]2NC(=O)O[C@@]21C
log10 of MIC: 1.10

compound: CC[C@H]1OC(=O)[C@H](C)C(=O)[C@H](C)[C@@H](O[C@@H]2O[C@H](C)C[C@H](N(C)Cc3ccccc3)[C@H]2O)[C@](C)(OCC=Cc2cnc3ccccc3c2)C[C@@H](C)C(=O)[C@H](C)[C@H]2NC(=O)O[C@@]21C
log10 of MIC: -0.70

compound: CC[C@H]1OC(=O)[C@H](C)C(=O)[C@H](C)[C@@H](O[C@@H]2O[C@H](C)C[C@H](N(C)C3CC3)[C@H]2O)[C@](C)(OCC=Cc2cnc3ccccc3c2)C[C@@H](C)C(=O)[C@H](C)[C@H]2NC(=O)O[C@@]21C [Example 13]
log10 of MIC: 0.49

====

# System: Streptococcus pyogenes EES61
measure name: MIC (mg/L)

molecule: C=C(CN(C)[C@H]1C[C@@H](C)O[C@@H](O[C@@H]2[C@@H](C)C(=O)[C@@H](C)C(=O)O[C@H](CC)[C@@]3(C)OC(=O)N[C@@H]3[C@@H](C)C(=O)[C@H](C)C[C@@]2(C)OCC=Cc2cnc3ccccc3c2)[C@@H]1O)C(=O)OC
measure name: MIC
u: mg/L
number: 0.05
--
molecule: CC[C@H]1OC(=O)[C@H](C)C(=O)[C@H](C)[C@@H](O[C@@H]2O[C@H](C)C[C@H](N(C)CCF)[C@H]2O)[C@](C)(OCC=Cc2cnc3ccccc3c2)C[C@@H](C)C(=O)[C@H](C)[C@H]2NC(=O)O[C@@]21C
measure name: MIC
u: mg/L
number: 0.01
--
molecule: C=C(C)CN(C)[C@H]1C[C@@H](C)O[C@@H](O[C@@H]2[C@@H](C)C(=O)[C@@H](C)C(=O)O[C@H](CC)[C@@]3(C)OC(=O)N[C@@H]3[C@@H](C)C(=O)[C@H](C)C[C@@]2(C)OCC=Cc2cnc3ccccc3c2)[C@@H]1O
measure name: MIC
u: mg/L
number: 0.01
--
molecule: CC[C@H]1OC(=O)[C@H](C)C(=O)[C@H](C)[C@@H](O[C@@H]2O[C@H](C)C[C@H](N(C)Cc3cccc(O)c3)[C@H]2O)[C@](C)(OCC=Cc2cnc3ccccc3c2)C[C@@H](C)C(=O)[C@H](C)[C@H]2NC(=O)O[C@@]21C
measure name: MIC
u: mg/L
number: 0.1
--
molecule: CC[C@H]1OC(=O)[C@H](C)C(=O)[C@H](C)[C@@H](O[C@@H]2O[C@H](C)C[C@H](N(C)Cc3cccnc3)[C@H]2O)[C@](C)(OCC=Cc2cnc3ccccc3c2)C[C@@H](C)C(=O)[C@H](C)[C@H]2NC(=O)O[C@@]21C
measure name: MIC
u: mg/L
number: 0.05
--
molecule: CC[C@H]1OC(=O)[C@H](C)C(=O)[C@H](C)[C@@H](O[C@@H]2O[C@H](C)C[C@H](N(C)Cc3ccccc3)[C@H]2O)[C@](C)(OCC=Cc2cnc3ccccc3c2)C[C@@H](C)C(=O)[C@H](C)[C@H]2NC(=O)O[C@@]21C
measure name: MIC
u: mg/L
number: 0.02
--
molecule: CC[C@H]1OC(=O)[C@H](C)C(=O)[C@H](C)[C@@H](O[C@@H]2O[C@H](C)C[C@H](NC)[C@H]2O)[C@](C)(OCC=Cc2cnc3ccccc3c2)C[C@@H](C)C(=O)[C@H](C)[C@H]2NC(=O)O[C@@]21C
measure name: MIC
u: mg/L
number: 0.01
--
molecule: CC[C@H]1OC(=O)[C@H](C)C(=O)[C@H](C)[C@@H](O[C@@H]2O[C@H](C)C[C@H](N(C)C3CC3)[C@H]2O)[C@](C)(OCC=Cc2cnc3ccccc3c2)C[C@@H](C)C(=O)[C@H](C)[C@H]2NC(=O)O[C@@]21C [Example 13]
measure name: MIC
u: mg/L
number: 0.1
--
molecule: C#CCN(C)[C@H]1C[C@@H](C)O[C@@H](O[C@@H]2[C@@H](C)C(=O)[C@@H](C)C(=O)O[C@H](CC)[C@@]3(C)OC(=O)N[C@@H]3[C@@H](C)C(=O)[C@H](C)C[C@@]2(C)OCC=Cc2cnc3ccccc3c2)[C@@H]1O
measure name: MIC
u: mg/L
number: 0.01

Recorded values, source patent EP1025114B1.
